Entry source: patent US8334236B2

# Tested on: Echinochloa crus-galli (L.) P. Beauv. var. crus-galli
# PROTOCOL NOTES: Test Example 3: herbicidal effects in farmland foliar treatment
# Format: in vivo
# Set-up: scale not given here
# CONDITIONS USED: 1000 g active ingredient per hectare, 14th day after treatment
Overview of recorded Herbicidal effect index, Echinochloa crus-galli for various molecules
// keep it numeric: no unit symbol after the value

1) COc1ccc(-n2c(=O)c(C(=O)C3=C(O)CCCC3=O)cc3ccccc32)cc1: 3

Query: Item "CCCn1c(=O)c(C(=O)C2=C(O)CCCC2=O)cc2cccnc21" has what recorded Herbicidal effect index, Echinochloa crus-galli?
Reply: 5

Query: Recorded Herbicidal effect index, Echinochloa crus-galli for "COc1ccc(-n2c(=O)c(C(=O)C3=C(O)CCCC3=O)cc3cccnc32)cn1" , please?
Reply: 5

Query: For the molecule "Cn1c(=O)c(C(=O)C2=C(O)CCCC2=O)cc2ccc(C(F)F)nc21" , what Herbicidal effect index, Echinochloa crus-galli is on record?
Reply: 4

Query: What value of Herbicidal effect index, Echinochloa crus-galli has been reported for the following molecule? "O=C1CCCC(O)=C1C(=O)c1cc2cccnc2n(-c2ccccc2)c1=O"
Reply: 5

Query: Requested read-out: Herbicidal effect index, Echinochloa crus-galli. Entry: "COc1ccccc1-n1c(=O)c(C(=O)C2=C(O)CCCC2=O)cc2cccnc21"
Reply: 5

Query: Would you kindly share the measured Herbicidal effect index, Echinochloa crus-galli for "Cc1ccccc1-n1c(=O)c(C(=O)C2=C(O)CCCC2=O)cc2cccnc21" ?
Reply: 5

Query: Endpoint output: Herbicidal effect index, Echinochloa crus-galli of "COc1ccc(Cn2c(=O)c(C(=O)C3=C(O)CCCC3=O)cc3cccnc32)cc1" . Value?
Reply: 5

Query: Quick check: Herbicidal effect index, Echinochloa crus-galli of "CCOCCn1c(=O)c(C(=O)C2=C(O)CCCC2=O)cc2cccnc21" ?
Reply: 5

Query: Find the recorded Herbicidal effect index, Echinochloa crus-galli belonging to "Cn1c(=O)c(C(=O)C2=C(O)CCCC2=O)cc2cccnc21" and report it.
Reply: 5

Query: I have this molecule here, "O=C1CCCC(O)=C1C(=O)c1cc2cccnc2n(-c2cccc(F)c2)c1=O" , and I need its recorded Herbicidal effect index, Echinochloa crus-galli.
Reply: 5
